MEASURED ON: recombinant mTOR (Homo sapiens (Human), UniProt P42345)
Sequence (P42345 1360-2549): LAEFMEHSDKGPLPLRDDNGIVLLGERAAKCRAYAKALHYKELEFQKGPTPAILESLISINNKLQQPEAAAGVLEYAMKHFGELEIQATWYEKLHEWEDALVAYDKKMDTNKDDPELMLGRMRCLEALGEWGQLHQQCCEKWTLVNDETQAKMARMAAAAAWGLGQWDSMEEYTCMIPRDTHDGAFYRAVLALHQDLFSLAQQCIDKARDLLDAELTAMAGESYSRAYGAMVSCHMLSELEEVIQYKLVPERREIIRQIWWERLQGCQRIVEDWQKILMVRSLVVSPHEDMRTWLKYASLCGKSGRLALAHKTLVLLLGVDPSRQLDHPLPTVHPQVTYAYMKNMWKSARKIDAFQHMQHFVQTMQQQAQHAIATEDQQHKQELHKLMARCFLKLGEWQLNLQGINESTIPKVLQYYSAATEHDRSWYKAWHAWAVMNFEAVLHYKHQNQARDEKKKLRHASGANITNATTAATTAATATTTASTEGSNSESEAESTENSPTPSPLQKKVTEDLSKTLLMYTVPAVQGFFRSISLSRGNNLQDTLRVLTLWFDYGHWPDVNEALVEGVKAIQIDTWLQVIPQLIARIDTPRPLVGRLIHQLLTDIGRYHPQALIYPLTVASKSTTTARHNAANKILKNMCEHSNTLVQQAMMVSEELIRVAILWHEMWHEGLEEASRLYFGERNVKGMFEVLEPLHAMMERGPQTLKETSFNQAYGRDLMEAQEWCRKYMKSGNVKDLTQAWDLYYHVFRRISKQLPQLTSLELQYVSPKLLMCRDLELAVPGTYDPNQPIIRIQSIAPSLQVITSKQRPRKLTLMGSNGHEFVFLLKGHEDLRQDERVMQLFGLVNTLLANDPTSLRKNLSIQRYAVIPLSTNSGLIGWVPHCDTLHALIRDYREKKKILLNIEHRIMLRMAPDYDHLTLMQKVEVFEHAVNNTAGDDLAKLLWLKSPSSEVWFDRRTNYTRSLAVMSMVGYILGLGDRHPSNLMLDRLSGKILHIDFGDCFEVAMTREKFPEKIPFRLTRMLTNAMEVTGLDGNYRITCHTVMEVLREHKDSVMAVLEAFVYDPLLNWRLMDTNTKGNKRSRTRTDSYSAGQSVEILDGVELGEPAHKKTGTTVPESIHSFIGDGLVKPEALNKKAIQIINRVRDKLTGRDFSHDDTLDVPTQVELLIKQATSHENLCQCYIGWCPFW
PROCEDURE SUMMARY: mTOR inhibition assay (radiometric or LanthaScreen TR-FRET)
Type: biochemical
RECORDED CONDITIONS: in vitro; read-out: MTORC IC50
Consider the following molecules and their measured IC50 readings.

Some entries whose results are on file:
{"MOLECULE": "Nc1nc2cc(-c3ccc4ncc(N5CCNC(C(F)(F)F)C5)nc4c3)ccc2o1 (centres unmarked) [compound 384]", "ASSAY RESULT": "< 1 µM"}
{"MOLECULE": "CN1CCN(C2CN(C(=O)c3cnc4ccc(-c5ccc6oc(N)nc6c5)cn34)C2)CC1 [compound 303]", "ASSAY RESULT": "< 10 µM"}
{"MOLECULE": "CN1CCN([C@@H]2CCN(c3cnc4ccc(-c5ccc6oc(N)nc6c5)cc4n3)C2)CC1 [compound 379]", "ASSAY RESULT": "< 10 µM"}
{"MOLECULE": "Nc1nc2cc(-c3ccc4ncc(N5CC[C@H](O)C5)nc4c3)ccc2o1 [compound 262]", "ASSAY RESULT": "< 10 µM"}
{"MOLECULE": "Nc1nc2cc(-c3ccc4nc(N)oc4c3)ccc2o1 [compound 241]", "ASSAY RESULT": "< 10 µM"}

Let's switch to this molecule now.
Lookup: For the molecule Cc1nccn1C1CN(c2cnc3ccc(-c4ccc5oc(N)nc5c4)cc3n2)C1 [compound 354] , what IC50 is on record?
Found: < 10 µM

====

MEASURED ON: p110α/p85α (Homo sapiens (Human), UniProt P42336)
Sequence (P42336 whole entry): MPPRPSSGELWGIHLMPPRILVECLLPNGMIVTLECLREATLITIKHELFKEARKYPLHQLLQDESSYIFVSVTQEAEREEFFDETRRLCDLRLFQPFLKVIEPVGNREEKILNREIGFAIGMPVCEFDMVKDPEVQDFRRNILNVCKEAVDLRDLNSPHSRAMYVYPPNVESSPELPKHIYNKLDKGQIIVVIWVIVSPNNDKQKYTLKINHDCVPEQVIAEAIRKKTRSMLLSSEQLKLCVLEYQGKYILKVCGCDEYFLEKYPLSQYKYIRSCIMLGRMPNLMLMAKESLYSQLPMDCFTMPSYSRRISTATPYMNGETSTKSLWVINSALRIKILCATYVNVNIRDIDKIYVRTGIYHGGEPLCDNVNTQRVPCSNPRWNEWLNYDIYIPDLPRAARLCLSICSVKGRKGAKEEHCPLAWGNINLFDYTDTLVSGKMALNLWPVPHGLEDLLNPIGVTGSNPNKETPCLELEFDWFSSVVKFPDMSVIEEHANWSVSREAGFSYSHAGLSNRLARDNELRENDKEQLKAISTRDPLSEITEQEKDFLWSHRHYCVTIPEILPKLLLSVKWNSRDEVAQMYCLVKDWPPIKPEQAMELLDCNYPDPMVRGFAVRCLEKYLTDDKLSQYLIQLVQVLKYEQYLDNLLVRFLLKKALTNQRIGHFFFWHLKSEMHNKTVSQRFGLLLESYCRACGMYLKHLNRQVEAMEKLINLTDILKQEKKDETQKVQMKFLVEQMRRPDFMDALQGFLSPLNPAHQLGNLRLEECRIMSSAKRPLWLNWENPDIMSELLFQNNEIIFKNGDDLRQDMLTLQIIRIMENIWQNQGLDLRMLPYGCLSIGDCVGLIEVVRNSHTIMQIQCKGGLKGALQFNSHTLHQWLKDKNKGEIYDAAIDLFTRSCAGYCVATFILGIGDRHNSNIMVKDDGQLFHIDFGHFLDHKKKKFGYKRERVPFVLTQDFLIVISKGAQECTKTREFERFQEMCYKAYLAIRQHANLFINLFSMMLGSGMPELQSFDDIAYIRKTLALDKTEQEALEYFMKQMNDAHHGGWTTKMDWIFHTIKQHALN
Sequence (P27986 whole entry partner): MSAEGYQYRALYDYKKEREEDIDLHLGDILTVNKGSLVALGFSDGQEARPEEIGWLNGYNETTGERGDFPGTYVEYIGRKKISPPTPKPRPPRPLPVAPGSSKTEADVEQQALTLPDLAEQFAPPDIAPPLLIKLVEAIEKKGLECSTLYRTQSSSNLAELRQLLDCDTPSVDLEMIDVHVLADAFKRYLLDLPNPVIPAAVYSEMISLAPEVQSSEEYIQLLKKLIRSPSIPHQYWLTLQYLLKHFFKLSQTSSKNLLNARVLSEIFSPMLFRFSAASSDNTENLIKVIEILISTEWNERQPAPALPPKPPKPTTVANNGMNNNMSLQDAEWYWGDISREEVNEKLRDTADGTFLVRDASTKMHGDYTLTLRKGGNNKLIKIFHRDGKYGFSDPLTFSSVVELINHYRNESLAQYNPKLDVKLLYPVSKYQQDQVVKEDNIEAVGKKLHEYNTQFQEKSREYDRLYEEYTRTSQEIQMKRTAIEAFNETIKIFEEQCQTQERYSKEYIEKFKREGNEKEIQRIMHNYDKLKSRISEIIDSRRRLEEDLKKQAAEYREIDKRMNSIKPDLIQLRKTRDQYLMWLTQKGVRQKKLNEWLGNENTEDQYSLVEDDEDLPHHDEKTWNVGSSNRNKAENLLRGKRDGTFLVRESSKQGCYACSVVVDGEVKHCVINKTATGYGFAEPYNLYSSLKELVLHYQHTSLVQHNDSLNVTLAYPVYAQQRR
PROCEDURE SUMMARY: PI 3-Kinase (human) HTRF assay, p110α/p85α
Type: biochemical
RECORDED CONDITIONS: in vitro; read-out: PI3K α IC50
Consider the following compounds and their measured IC50 readings.

Some entries whose results are on file:
{"COMPOUND": "Nc1nc2cc(-c3ccc4ncc(C(=O)NCCCN5CCOCC5)n4c3)ccc2o1 [compound 288]", "IC50": "< 1000 nM"}
{"COMPOUND": "CN1CCN(C2CN(C(=O)c3cnc4ccc(-c5ccc6oc(N)nc6c5)cn34)C2)CC1 [compound 303]", "IC50": "< 100 nM"}
{"COMPOUND": "Nc1nc2cc(-c3ccc4ncc(C(=O)N5CCOCC5)n4c3)c(F)cc2o1 [compound 372]", "IC50": "< 1000 nM"}
{"COMPOUND": "Nc1nc2cc(-c3ccc4ncc(N5CCN(C(=O)CN6CCCC6)CC5)nc4c3)ccc2o1 [compound 278]", "IC50": "< 100 nM"}
{"COMPOUND": "Nc1nc2cc(-c3ccc4ncc(C(=O)N5CCOCC5)n4c3)c(Cl)cc2o1 [compound 370]", "IC50": "< 10000 nM"}

Lookup: For the compound NC(=O)[C@H]1CCCN1C(=O)c1cnc2ccc(-c3ccc4oc(N)nc4c3)cn12 [compound 260] , what IC50 is on record?
Found: < 1000 nM

====

MEASURED ON: p110δ/p85α (Homo sapiens (Human), UniProt O00329)
Sequence (O00329 whole entry, one chain of several): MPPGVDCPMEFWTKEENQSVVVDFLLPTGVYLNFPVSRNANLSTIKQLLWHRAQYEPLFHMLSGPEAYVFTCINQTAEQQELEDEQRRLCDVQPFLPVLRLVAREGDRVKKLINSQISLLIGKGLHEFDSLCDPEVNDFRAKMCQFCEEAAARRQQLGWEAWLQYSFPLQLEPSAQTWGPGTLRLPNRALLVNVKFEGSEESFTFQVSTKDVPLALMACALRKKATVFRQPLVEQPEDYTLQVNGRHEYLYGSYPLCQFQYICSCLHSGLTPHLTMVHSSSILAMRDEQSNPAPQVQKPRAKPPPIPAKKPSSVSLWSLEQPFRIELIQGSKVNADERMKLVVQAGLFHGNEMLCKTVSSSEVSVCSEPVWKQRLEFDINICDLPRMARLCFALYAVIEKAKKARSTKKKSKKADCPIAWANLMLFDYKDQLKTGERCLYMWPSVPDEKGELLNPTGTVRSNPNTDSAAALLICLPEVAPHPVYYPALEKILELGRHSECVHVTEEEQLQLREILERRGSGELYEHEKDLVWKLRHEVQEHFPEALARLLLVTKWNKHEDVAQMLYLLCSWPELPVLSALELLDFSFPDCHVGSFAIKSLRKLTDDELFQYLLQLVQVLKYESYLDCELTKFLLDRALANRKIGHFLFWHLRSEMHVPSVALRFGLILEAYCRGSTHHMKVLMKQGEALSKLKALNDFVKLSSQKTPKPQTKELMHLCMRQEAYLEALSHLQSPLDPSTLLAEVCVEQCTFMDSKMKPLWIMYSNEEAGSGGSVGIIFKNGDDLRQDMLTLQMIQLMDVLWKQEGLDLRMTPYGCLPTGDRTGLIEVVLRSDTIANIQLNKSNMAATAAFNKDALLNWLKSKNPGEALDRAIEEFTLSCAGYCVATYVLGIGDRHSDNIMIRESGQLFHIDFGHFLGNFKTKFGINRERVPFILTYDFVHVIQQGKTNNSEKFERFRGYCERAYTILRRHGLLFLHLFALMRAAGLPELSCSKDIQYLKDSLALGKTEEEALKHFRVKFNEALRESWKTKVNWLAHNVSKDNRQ
PROCEDURE SUMMARY: PI 3-Kinase (human) HTRF assay, p110δ/p85α
Type: biochemical
RECORDED CONDITIONS: read-out: PI3K δ IC50
pIC50: −log10 of the molar value.
ENDPOINT NAME: pIC50

Lookup: For the compound NCC(=O)N1CCN(c2cnc3ccc(-c4ccc5oc(N)nc5c4)cc3n2)CC1 [compound 192] , what pIC50 is on record?
Found: > 6.00

Lookup: Ok, now CS(=O)(=O)CCN1CCN(c2cnc3ccc(-c4ccc5oc(N)nc5c4)cc3n2)CC1 [compound 90]
Found: > 5.00

Lookup: Ok, now CCN1CCN(c2cnc3ccc(-c4ccc5oc(N)nc5c4)cc3n2)CC1 [compound 152]
Found: > 5.00

Lookup: Ok, now Nc1nsc2cc(-c3ccc4nccc(-c5ccncc5)c4c3)ccc12 [compound 13]
Found: > 6.00

The measured values listed here are drawn from patent US11547697B2.
